Each recorded value in this set is attributed to patent US20110081661A1.

- TARGET ENTITY: T1, GIP Receptor (Homo sapiens, UniProt P48546)
- T1 construct: host or cells: HEK293T
- T1 sequence (P48546 22-466): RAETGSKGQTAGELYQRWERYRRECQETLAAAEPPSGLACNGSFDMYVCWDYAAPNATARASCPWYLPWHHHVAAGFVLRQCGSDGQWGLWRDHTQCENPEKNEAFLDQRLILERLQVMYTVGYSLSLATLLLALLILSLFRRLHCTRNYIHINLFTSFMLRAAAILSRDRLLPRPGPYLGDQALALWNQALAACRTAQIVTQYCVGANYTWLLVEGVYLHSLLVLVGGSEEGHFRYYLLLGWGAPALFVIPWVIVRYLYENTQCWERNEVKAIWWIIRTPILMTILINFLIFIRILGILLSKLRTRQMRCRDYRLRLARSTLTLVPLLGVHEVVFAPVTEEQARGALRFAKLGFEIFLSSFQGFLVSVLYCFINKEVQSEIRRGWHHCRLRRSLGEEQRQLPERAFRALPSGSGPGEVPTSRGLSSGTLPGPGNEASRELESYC
- TEST: GIP receptor-mediated bioluminescence in HEK293T cells with chimeric promiscuous G protein (FIG. 5, Table II)
- Type: cell-based
- TEST PARAMETERS: signal induced by maximal GIP (1 μM) divided by signal induced by buffer alone
Cut-off 100 on Signal: background with GIP: below means t, at or above means f.

Example entries and their recorded answers appear below.
- MOLECULE: "Mt-clytin K168H: Mitochondrial K168H modified Clytin, SEQ ID NO:14 (protein) MSVLTPLLLRGLTGSARRLPVPRAKIHSLPPEGKLRPNFDNPKWVNRHKFMFNFLDINGDGKITLDEIVSKASDDICAKLGATPEQTKRHQDAVEAFFKKIGMDYGKEVEFPAFVDGWKELANYDLKLWSQNKKSLIRDWGEAVFDIFDKDGSGSISLDEWKAYGRISGICSSDEDAEKTFKHCDLDNSGHLDVDEMTRQHLGFWYTLDPNADGLYGNFVP"
  CLASS ASSIGNMENT: "f"
- MOLECULE: "Mt-clytin K168R: Mitochondrial K168R modified Clytin, SEQ ID NO:30 (protein) MSVLTPLLLRGLTGSARRLPVPRAKIHSLPPEGKLRPNFDNPKWVNRHKFMFNFLDINGDGKITLDEIVSKASDDICAKLGATPEQTKRHQDAVEAFFKKIGMDYGKEVEFPAFVDGWKELANYDLKLWSQNKKSLIRDWGEAVFDIFDKDGSGSISLDEWKAYGRISGICSSDEDAEKTFKHCDLDNSGRLDVDEMTRQHLGFWYTLDPNADGLYGNFVP"
  CLASS ASSIGNMENT: "t"
- MOLECULE: "Mt-obelin: Mitochondrial Wild-type Obelin (mt-Obelin), SEQ ID NO:7 (protein, listed as Obelia longissima) MSVLTPLLLRGLTGSARRLPVPRAKIHSLPPEGKLMSSKYAVKLKTDFDNPRWIKRHKHMFDFLDINGNGKITLDEIVSKASDDICAKLEATPEQTKRHQVCVEAFFRGCGMEYGKEIAFPQFLDGWKQLATSELKKWARNEPTLIREWGDAVFDIFDKDGSGTITLDEWKAYGKISGISPSQEDCEATFRHCDLDNSGDLDVDEMTRQHLGFWYTLDPEADGLYGNGVP"
  CLASS ASSIGNMENT: "f"
- MOLECULE: "Mt-clytin K168S: Mitochondrial K168S modified Clytin, SEQ ID NO:22 (protein) MSVLTPLLLRGLTGSARRLPVPRAKIHSLPPEGKLRPNFDNPKWVNRHKFMFNFLDINGDGKITLDEIVSKASDDICAKLGATPEQTKRHQDAVEAFFKKIGMDYGKEVEFPAFVDGWKELANYDLKLWSQNKKSLIRDWGEAVFDIFDKDGSGSISLDEWKAYGRISGICSSDEDAEKTFKHCDLDNSGSLDVDEMTRQHLGFWYTLDPNADGLYGNFVP"
  CLASS ASSIGNMENT: "f"

Ask | Here's an entry: Mt-clytin K168E: Mitochondrial K168E modified Clytin, SEQ ID NO:12 (protein) MSVLTPLLLRGLTGSARRLPVPRAKIHSLPPEGKLRPNFDNPKWVNRHKFMFNFLDINGDGKITLDEIVSKASDDICAKLGATPEQTKRHQDAVEAFFKKIGMDYGKEVEFPAFVDGWKELANYDLKLWSQNKKSLIRDWGEAVFDIFDKDGSGSISLDEWKAYGRISGICSSDEDAEKTFKHCDLDNSGELDVDEMTRQHLGFWYTLDPNADGLYGNFVP . Is its Signal: background with GIP below 100?
Reply | f
